Target: KRas G12D/Q61H double mutant (Homo sapiens (Human), UniProt P01116, G12D/Q61H)
Sequence (P01116-2 other isoform, or with tags, fused parts or gaps G12D/Q61H): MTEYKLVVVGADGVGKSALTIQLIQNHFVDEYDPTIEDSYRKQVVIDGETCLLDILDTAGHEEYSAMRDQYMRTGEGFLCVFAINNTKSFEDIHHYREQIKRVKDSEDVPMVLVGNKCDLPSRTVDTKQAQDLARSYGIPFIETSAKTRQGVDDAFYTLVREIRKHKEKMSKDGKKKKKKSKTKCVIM
Assay: Ras GTP binding domain inhibition assay (labeled GTP)
Conditions: 20 μM compound; read-out: % Inhibition at 20 μM KRas G12D Q61H
measurement_label: inhibition at 20 µM

Worked cases, answers included:
Cc1cnc(-c2ccccn2)nc1NC(=O)Cc1ccc2cnccc2c1 [drawing 2856] ... 51 to 75%
COC(=O)c1cccc(NCc2nc(CC(C)C)no2)c1 ... 25 to 50%
CN(C)Cc1ccc(-c2csc3c(O)nc(-c4ccccn4)nc23)cc1F [drawing 2845] ... 76 to 100%
O=C(c1csc2c(O)nc(-c3ccccn3)nc12)N1CCC(c2cccnc2)CC1 [drawing 2682] ... 51 to 75%

Ask | # query: inhibition at 20 µM of entry Cc1cc(OC(F)F)ccc1-c1csc2c(O)nc(-c3ccccn3)nc12 [drawing 2878]
Reply | 25 to 50%

Ask | And what about the compound CCOc1ccc(S(=O)(=O)N(CC(=O)N2CCc3ccccc32)Cc2ccco2)cc1 ?
Reply | 25 to 50%

Ask | And what about the compound CN(C)c1ccccc1NCc1cc(Br)c2c(c1)OCCCO2 ?
Reply | 25 to 50%

Ask | And what about the compound CCCOc1ccc(OCCOC(=O)c2cccnc2SCCOc2ccc(OCCC)cc2)cc1 ?
Reply | 25 to 50%

Ask | And what about the compound CCOC(=O)C1CCCC1N(Cc1cccc([N+](=O)[O-])c1)C1CC1 (centres unmarked) ?
Reply | 25 to 50%

Ask | And what about the compound O=C(Nc1nnc(-c2ccccn2)[nH]1)C1CC=CCC1 (centres unmarked) ?
Reply | 25 to 50%

Ask | And what about the compound CN(Cc1ccc(C(=O)NCC(F)(F)F)cc1)Cc1ccc([N+](=O)[O-])cc1 ?
Reply | 25 to 50%

Ask | And what about the compound CCN(CCC(=O)OC)c1nc(-c2ccccn2)nc2c1CCC2 ?
Reply | 25 to 50%

Ask | And what about the compound COc1ccnc(-c2nc(O)c3c(Cl)csc3n2)c1 [drawing 2800] ?
Reply | 51 to 75%

Ask | And what about the compound COc1cccc(-c2csc3c(O)nc(-c4ccccn4)nc23)c1 [drawing 2872] ?
Reply | 25 to 50%

Ask | And what about the compound Cc1ccccc1OCCn1c(CN2CCCCC2)nc2ccccc21 ?
Reply | 25 to 50%

Ask | And what about the compound COc1ccc(-c2nc(C(=O)NCc3ccccn3)cs2)cc1 ?
Reply | 1 to 25%

Ask | And what about the compound Nc1nc(-c2ccccn2)nc2ccsc12 [drawing 2834] ?
Reply | 25 to 50%
